refractive index values by entry
Measurement Notes: refractive index (Na D-line) (dimensionless)
Experimental Conditions: 343.15 K; 101 kPa; Liquid; Standard Abbe refractometry
Measurement Label: refractive index

- Molecule: "CCn1cc[n+](C)c1.O=C([O-])[C@@H]1CCCN1 [1-ethyl-3-methyl-1H-imidazolium L-prolinate]"
  Measurement Label: "refractive index"
  Quantitative Result: 1.50897
- Molecule: "CCn1cc[n+](C)c1.C[C@H](N)C(=O)[O-] [1-ethyl-3-methylimidazolium L-alaninate]"
  Measurement Label: "refractive index"
  Quantitative Result: 1.49932
- Molecule: "CCn1cc[n+](C)c1.NCCS(=O)(=O)[O-] [1-ethyl-3-methylimidazolium taurinate]"
  Measurement Label: "refractive index"
  Quantitative Result: 1.49997
- Molecule: "CCn1cc[n+](C)c1.N#C[C-](C#N)C#N [1-ethyl-3-methyl-1H-imidazolium tricyanomethanide]"
  Measurement Label: "refractive index"
  Quantitative Result: 1.49757
- Molecule: "CCn1cc[n+](C)c1.NCC(=O)[O-] [1-ethyl-3-methylimidazolium ammonioacetate]"
  Measurement Label: "refractive index"
  Quantitative Result: 1.50769
- Molecule: "CC[n+]1ccn(C)c1.N[C@@H](CO)C(=O)[O-] [3-ethyl-1-methyl-1H-imidazolium L-serinate]"
  Measurement Label: "refractive index"
  Quantitative Result: 1.51353

---

Experimental Conditions: 328.15 K; 101 kPa; Liquid; Stabinger Viscometer
± gives the expanded uncertainty stated by the source.

- Compound: "CCn1cc[n+](C)c1.NCCS(=O)(=O)[O-] [1-ethyl-3-methylimidazolium taurinate]"
  viscosity: "86.59 ± 3.1 mPa·s"
- Compound: "CCn1cc[n+](C)c1.C[C@H](N)C(=O)[O-] [1-ethyl-3-methylimidazolium L-alaninate]"
  viscosity: "49.69 ± 1.6 mPa·s"
- Compound: "CC[n+]1ccn(C)c1.N[C@@H](CO)C(=O)[O-] [3-ethyl-1-methyl-1H-imidazolium L-serinate]"
  viscosity: "209.91 ± 11 mPa·s"
- Compound: "CCn1cc[n+](C)c1.O=C([O-])[C@@H]1CCCN1 [1-ethyl-3-methyl-1H-imidazolium L-prolinate]"
  viscosity: "141.76 ± 5.8 mPa·s"

---

Experimental Conditions: 318.15 K; 101 kPa; Liquid; Stabinger Viscometer
Numbers after ± are expanded uncertainties.
Measured viscosity, listed per entry.

- Compound: "CC[n+]1ccn(C)c1.N[C@@H](CO)C(=O)[O-] [3-ethyl-1-methyl-1H-imidazolium L-serinate]"
  viscosity: "405.12 ± 30 mPa·s"
- Compound: "CCn1cc[n+](C)c1.C[C@H](N)C(=O)[O-] [1-ethyl-3-methylimidazolium L-alaninate]"
  viscosity: "79.34 ± 2.8 mPa·s"
- Compound: "CCn1cc[n+](C)c1.O=C([O-])[C@@H]1CCCN1 [1-ethyl-3-methyl-1H-imidazolium L-prolinate]"
  viscosity: "256.92 ± 15 mPa·s"
- Compound: "CCn1cc[n+](C)c1.NCCS(=O)(=O)[O-] [1-ethyl-3-methylimidazolium taurinate]"
  viscosity: "143.31 ± 6.6 mPa·s"

---

Measurement Notes: refractive index (Na D-line) (dimensionless)
Experimental Conditions: 338.15 K; 101 kPa; Liquid; Standard Abbe refractometry
# reported refractive index; entries follow

- Molecule: "CCn1cc[n+](C)c1.N#C[C-](C#N)C#N [1-ethyl-3-methyl-1H-imidazolium tricyanomethanide]"
  refractive index: 1.49921
- Molecule: "CCn1cc[n+](C)c1.NCC(=O)[O-] [1-ethyl-3-methylimidazolium ammonioacetate]"
  refractive index: 1.50904
- Molecule: "CCn1cc[n+](C)c1.O=C([O-])[C@@H]1CCCN1 [1-ethyl-3-methyl-1H-imidazolium L-prolinate]"
  refractive index: 1.51035
- Molecule: "CC[n+]1ccn(C)c1.N[C@@H](CO)C(=O)[O-] [3-ethyl-1-methyl-1H-imidazolium L-serinate]"
  refractive index: 1.51486
- Molecule: "CCn1cc[n+](C)c1.NCCS(=O)(=O)[O-] [1-ethyl-3-methylimidazolium taurinate]"
  refractive index: 1.50136
- Molecule: "CCn1cc[n+](C)c1.C[C@H](N)C(=O)[O-] [1-ethyl-3-methylimidazolium L-alaninate]"
  refractive index: 1.50074

---

Experimental Conditions: 293.15 K; 101 kPa; Liquid; Stabinger Viscometer

- Compound: "CCn1cc[n+](C)c1.NCCS(=O)(=O)[O-] [1-ethyl-3-methylimidazolium taurinate]"
  viscosity / mPa·s: 760.89
- Compound: "CCn1cc[n+](C)c1.O=C([O-])[C@@H]1CCCN1 [1-ethyl-3-methyl-1H-imidazolium L-prolinate]"
  viscosity / mPa·s: 1928.4
- Compound: "CC[n+]1ccn(C)c1.N[C@@H](CO)C(=O)[O-] [3-ethyl-1-methyl-1H-imidazolium L-serinate]"
  viscosity / mPa·s: 3796.8
- Compound: "CCn1cc[n+](C)c1.C[C@H](N)C(=O)[O-] [1-ethyl-3-methylimidazolium L-alaninate]"
  viscosity / mPa·s: 382.06

---

Item-by-item account of mass density
Experimental Conditions: 328.15 K; 101.33 kPa; Liquid; Vibrating tube method

- Compound: "CCn1cc[n+](C)c1.NCCS(=O)(=O)[O-] [1-ethyl-3-methylimidazolium taurinate]"
  Unit String: "kg/m3"
  mass density: 1232.4
- Compound: "CCn1cc[n+](C)c1.NCC(=O)[O-] [1-ethyl-3-methylimidazolium ammonioacetate]"
  Unit String: "kg/m3"
  mass density: 1143
- Compound: "CC[n+]1ccn(C)c1.N[C@@H](CO)C(=O)[O-] [3-ethyl-1-methyl-1H-imidazolium L-serinate]"
  Unit String: "kg/m3"
  mass density: 1184.7
- Compound: "CCn1cc[n+](C)c1.C[C@H](N)C(=O)[O-] [1-ethyl-3-methylimidazolium L-alaninate]"
  Unit String: "kg/m3"
  mass density: 1104.4
- Compound: "CCn1cc[n+](C)c1.O=C([O-])[C@@H]1CCCN1 [1-ethyl-3-methyl-1H-imidazolium L-prolinate]"
  Unit String: "kg/m3"
  mass density: 1124

---

# mass density annotations
Experimental Conditions: 313.15 K; 101.33 kPa; Liquid; Vibrating tube method

- Molecule: "CC[n+]1ccn(C)c1.N[C@@H](CO)C(=O)[O-] [3-ethyl-1-methyl-1H-imidazolium L-serinate]"
  mass density, kg/m3: 1194
- Molecule: "CCn1cc[n+](C)c1.C[C@H](N)C(=O)[O-] [1-ethyl-3-methylimidazolium L-alaninate]"
  mass density, kg/m3: 1113.5
- Molecule: "CCn1cc[n+](C)c1.O=C([O-])[C@@H]1CCCN1 [1-ethyl-3-methyl-1H-imidazolium L-prolinate]"
  mass density, kg/m3: 1133.2
- Molecule: "CCn1cc[n+](C)c1.NCC(=O)[O-] [1-ethyl-3-methylimidazolium ammonioacetate]"
  mass density, kg/m3: 1152
- Molecule: "CCn1cc[n+](C)c1.NCCS(=O)(=O)[O-] [1-ethyl-3-methylimidazolium taurinate]"
  mass density, kg/m3: 1241.6

---

Experimental Conditions: 303.15 K; 101.33 kPa; Liquid; Vibrating tube method
Measurement Label: mass density (kg/m3)

- Compound: "CCn1cc[n+](C)c1.O=C([O-])[C@@H]1CCCN1 [1-ethyl-3-methyl-1H-imidazolium L-prolinate]"
  Measurement Label: "mass density"
  Unit String: "kg/m3"
  Quantitative Result: 1139.6
- Compound: "CCn1cc[n+](C)c1.C[C@H](N)C(=O)[O-] [1-ethyl-3-methylimidazolium L-alaninate]"
  Measurement Label: "mass density"
  Unit String: "kg/m3"
  Quantitative Result: 1119.8
- Compound: "CCn1cc[n+](C)c1.NCCS(=O)(=O)[O-] [1-ethyl-3-methylimidazolium taurinate]"
  Measurement Label: "mass density"
  Unit String: "kg/m3"
  Quantitative Result: 1248.1
- Compound: "CCn1cc[n+](C)c1.NCC(=O)[O-] [1-ethyl-3-methylimidazolium ammonioacetate]"
  Measurement Label: "mass density"
  Unit String: "kg/m3"
  Quantitative Result: 1158.1
- Compound: "CC[n+]1ccn(C)c1.N[C@@H](CO)C(=O)[O-] [3-ethyl-1-methyl-1H-imidazolium L-serinate]"
  Measurement Label: "mass density"
  Unit String: "kg/m3"
  Quantitative Result: 1200.5

---

Measurement Notes: refractive index (Na D-line) (dimensionless)
Experimental Conditions: 313.15 K; 101 kPa; Liquid; Standard Abbe refractometry
Numbers after ± are expanded uncertainties.

- Molecule: "CCn1cc[n+](C)c1.O=C([O-])[C@@H]1CCCN1 [1-ethyl-3-methyl-1H-imidazolium L-prolinate]"
  refractive index: "1.51731 ± 0.00069"
- Molecule: "CCn1cc[n+](C)c1.C[C@H](N)C(=O)[O-] [1-ethyl-3-methylimidazolium L-alaninate]"
  refractive index: "1.50793 ± 0.0011"
- Molecule: "CCn1cc[n+](C)c1.NCCS(=O)(=O)[O-] [1-ethyl-3-methylimidazolium taurinate]"
  refractive index: "1.50816 ± 0.0019"
- Molecule: "CCn1cc[n+](C)c1.N#C[C-](C#N)C#N [1-ethyl-3-methyl-1H-imidazolium tricyanomethanide]"
  refractive index: "1.50765 ± 0.00063"
- Molecule: "CCn1cc[n+](C)c1.NCC(=O)[O-] [1-ethyl-3-methylimidazolium ammonioacetate]"
  refractive index: "1.51585 ± 0.00087"
- Molecule: "CC[n+]1ccn(C)c1.N[C@@H](CO)C(=O)[O-] [3-ethyl-1-methyl-1H-imidazolium L-serinate]"
  refractive index: "1.52159 ± 0.0041"

FYI, the data here is from the NIST ThermoML archive (doi:10.1021/acs.jced.5b00242).
